FYI, the data here is from patent US20130129746A1.

Biological target: T1, Rat Serum Albumin (rat, UniProt P02770 25-608)
T1 construct: mature; purified protein on CM5 chips for BIAcore; also called RSA; rat SA
T1 sequence (P02770 25-608): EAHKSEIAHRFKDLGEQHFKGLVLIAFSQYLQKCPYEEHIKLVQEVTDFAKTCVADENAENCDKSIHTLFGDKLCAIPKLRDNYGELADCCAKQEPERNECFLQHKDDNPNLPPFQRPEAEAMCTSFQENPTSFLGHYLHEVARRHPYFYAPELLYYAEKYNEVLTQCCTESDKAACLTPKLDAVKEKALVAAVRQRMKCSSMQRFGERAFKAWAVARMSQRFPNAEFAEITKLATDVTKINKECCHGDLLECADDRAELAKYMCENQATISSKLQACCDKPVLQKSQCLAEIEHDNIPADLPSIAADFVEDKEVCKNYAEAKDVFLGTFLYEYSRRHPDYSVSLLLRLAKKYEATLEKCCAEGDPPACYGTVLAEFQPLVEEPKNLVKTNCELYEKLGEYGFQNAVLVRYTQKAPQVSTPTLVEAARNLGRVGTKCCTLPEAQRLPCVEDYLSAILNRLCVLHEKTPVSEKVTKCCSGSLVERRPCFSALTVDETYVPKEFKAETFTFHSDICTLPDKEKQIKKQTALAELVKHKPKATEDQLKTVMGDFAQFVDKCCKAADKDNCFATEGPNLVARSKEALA
Assay: BIAcore SPR
Kindly supply the reported pKd values for the records listed here.
Answer as the number alone; pKd is minus log10 of concentration in mol/L.

Q: Retrieve pKd measured for DOM7h-11-68 (other, Vk dAb) VL: DIQMTQSPSSLSASVGDRVTITCRASRPIGTMLSWYQQKPGEAPKLLILAFSRLQSGVPSRFSGSGSGTDFTLTISSLQPEDFATYYCAQTGTHPTTFGQGTKVEIKW and print it.
A: 7.60

Q: Provide pKd value for the following binder: DOM7h-11-57 (other, Vk dAb) VL: DIQMTQSPSSLSASVGDRVTITCRASRPIGTMLSWYQQKPGKAPKLLILAFSRLQSGVPSRFSGSGSGTDFTLTISNLQPEDFATYYCAQAGTHPTTFGQGTKVEIKW
A: 7.53

Q: Read off the recorded pKd for DOM7h-11-15 (other) VL: DIQMTQSPSSLSASVGDRVTITCRASRPIGTMLSWYQQKPGKAPKLLILAFSRLQSGVPSRFSGSGSGTDFTLTISSLQPEDFATYYCAQAGTHPTTFGQGTKVEIKR
A: 7.68

Q: Fill in pKd for record DOM7h-11-65 (other, Vk dAb) VL: DIQMTQSPSSLSASVGDRVTITCRASRPIGTMLSWYQQKPGKAPKLLILAFSRLQSGVPSRFSGSGSGTDFTLTISSLQPEDVATYYCAQAGTHPTTFGQGTKVEIKW
A: 7.61

Q: Indicate its recorded pKd; the binder in question is DOM7h-11-67 (other, Vk dAb) VL: DIQMTQSPSSLSASVGDRVTITCRASRPIGTMLSWYQQKPGKAPKLLILAFSRLQSGVPSRFSGSGSGTDFTLTISSLQPEDFATYYCAQAGTHHTTFGQGTKVENKW
A: 7.94
